Where do these numbers come from? They come from paper PMC8397634.

- system: α4β2 nAChRs (Homo sapiens, UniProt P17787+P43681)
- Sequence (P43681 29-627 limits assumed): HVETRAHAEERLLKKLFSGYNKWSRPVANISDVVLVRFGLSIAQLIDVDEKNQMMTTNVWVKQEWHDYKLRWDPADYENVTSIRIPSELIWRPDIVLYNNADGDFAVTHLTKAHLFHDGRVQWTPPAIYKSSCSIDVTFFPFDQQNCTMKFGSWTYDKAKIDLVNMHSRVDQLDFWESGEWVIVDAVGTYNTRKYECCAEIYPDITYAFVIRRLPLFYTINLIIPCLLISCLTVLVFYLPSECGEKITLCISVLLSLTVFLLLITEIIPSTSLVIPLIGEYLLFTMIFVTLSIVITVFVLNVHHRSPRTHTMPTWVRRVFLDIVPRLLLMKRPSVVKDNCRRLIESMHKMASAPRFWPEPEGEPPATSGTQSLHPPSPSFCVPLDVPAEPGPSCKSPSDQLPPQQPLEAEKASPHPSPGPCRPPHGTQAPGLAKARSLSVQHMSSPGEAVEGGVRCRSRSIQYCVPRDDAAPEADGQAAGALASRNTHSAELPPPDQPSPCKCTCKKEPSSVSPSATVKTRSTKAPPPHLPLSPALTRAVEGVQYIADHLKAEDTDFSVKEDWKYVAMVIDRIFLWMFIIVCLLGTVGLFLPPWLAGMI
- Sequence (P17787 26-502): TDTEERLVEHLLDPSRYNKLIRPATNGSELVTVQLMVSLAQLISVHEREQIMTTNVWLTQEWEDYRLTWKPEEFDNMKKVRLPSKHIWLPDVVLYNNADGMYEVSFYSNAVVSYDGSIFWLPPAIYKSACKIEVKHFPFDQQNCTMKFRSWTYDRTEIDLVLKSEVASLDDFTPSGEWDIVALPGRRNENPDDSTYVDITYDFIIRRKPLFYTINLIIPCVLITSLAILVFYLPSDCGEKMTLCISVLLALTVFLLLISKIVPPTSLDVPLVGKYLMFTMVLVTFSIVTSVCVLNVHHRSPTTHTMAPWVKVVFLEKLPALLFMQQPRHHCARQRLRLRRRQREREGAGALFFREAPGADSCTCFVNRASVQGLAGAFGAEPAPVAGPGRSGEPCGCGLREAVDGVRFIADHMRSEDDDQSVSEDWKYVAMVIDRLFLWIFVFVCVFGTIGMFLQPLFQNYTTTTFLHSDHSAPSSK
- assay summary: In vitro nAChR functional assay (automated patch-clamp, CHO cells)
- Type: cell-based
- condition parameters: α4β2 nAChR EC50
I'd be grateful if you could share measured pEC50 for these entries.
Numbers only, as −log10 of the molar value.

>>> recorded_measurement("CN1CC=CC[C@H]1c1cccnc1 [Methylanatabine, (S)-N-methylanatabine]")
5.21

Q. Query (compound): CNCC/C=C/c1cccnc1 [Metanicotine, metanicotine] ; field requested: pEC50
A. 4.71
